Biological target: Paired box protein Pax-8 (Homo sapiens)
Sequence (Q06710 whole entry): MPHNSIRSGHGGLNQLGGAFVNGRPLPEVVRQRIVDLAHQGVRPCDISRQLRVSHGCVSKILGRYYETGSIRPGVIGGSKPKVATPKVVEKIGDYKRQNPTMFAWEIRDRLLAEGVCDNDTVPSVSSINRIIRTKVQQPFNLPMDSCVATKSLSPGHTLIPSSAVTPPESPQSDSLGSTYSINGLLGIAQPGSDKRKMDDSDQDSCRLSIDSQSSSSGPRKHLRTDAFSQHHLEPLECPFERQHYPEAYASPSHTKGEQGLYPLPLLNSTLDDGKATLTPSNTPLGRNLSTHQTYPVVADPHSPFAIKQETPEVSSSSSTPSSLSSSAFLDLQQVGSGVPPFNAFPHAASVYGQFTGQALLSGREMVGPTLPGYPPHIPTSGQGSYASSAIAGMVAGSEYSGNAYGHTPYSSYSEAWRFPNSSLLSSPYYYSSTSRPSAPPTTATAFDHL
Assay: inhibitors of PAX8-driven TPO luciferase reporter, dose response, RMG-I cells, cherry-pick (AID 687027);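 note: luciferase reporter driven by Pax8 target thyroperoxidase promoter measured by SteadyGlo luminescence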
Assay type: functional, cell-based
Calls of active or inactive are those of the source.
OBSERVATION_TYPE: AC50

ITEM_SMILES | OBSERVATION_TYPE | RESULT
CCN(CC)S(=O)(=O)c1cc(OC)ccc1N=Nc1ccc(O)c2ncccc12 | AC50 | 1.27 µM (active)
C[C@H]1CN([C@@H](C)CO)C(=O)c2cc(NS(=O)(=O)c3ccccc3)ccc2O[C@@H]1CN(C)Cc1ccc(Oc2ccccc2)cc1 | AC50 | 15.7 µM (active)
C[C@@H]1CN([C@@H](C)CO)C(=O)Cc2cc(NS(=O)(=O)c3ccccc3)ccc2O[C@H]1CN(C)Cc1ccc(Cl)c(Cl)c1 | AC50 | 2.42 µM (active)
N#C[C@@H]1[C@H](c2ccc(C#CC3CCCC3)cc2)[C@H](CO)N1C(=O)Nc1ccc(F)cc1 | AC50 | 10.5 µM (active)
O=C(O)c1cccc(COc2ccc3c(c2)CCC3)c1 | AC50 | 3.79 µM (active)
Cn1nnnc1Sc1ncnc2scc(-c3cccc(C(F)(F)F)c3)c12 | AC50 | 3.41 µM (active)
COc1ccc(-c2ccc3c(c2)[C@H]2[C@H](CCN2S(=O)(=O)c2ccc(F)cc2)[C@H](CO)N3C)cc1 | AC50 | 8.98 µM (active)
C[C@@H]1CCCCO[C@H](CN(C)Cc2ccc(C(F)(F)F)cc2)[C@H](C)CN([C@H](C)CO)C(=O)c2cc(NC(=O)Cc3ccccc3)ccc2O1 | AC50 | 6.16 µM (active)

----------
Biological target: Sentrin-specific protease 6 (Homo sapiens, UniProt Q9GZR1);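 note: Luminescence-based dose-response confirmatory assay of SENP6 inhibition, following up an ultra-high-throughput screen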
Sequence (Q9GZR1 whole entry): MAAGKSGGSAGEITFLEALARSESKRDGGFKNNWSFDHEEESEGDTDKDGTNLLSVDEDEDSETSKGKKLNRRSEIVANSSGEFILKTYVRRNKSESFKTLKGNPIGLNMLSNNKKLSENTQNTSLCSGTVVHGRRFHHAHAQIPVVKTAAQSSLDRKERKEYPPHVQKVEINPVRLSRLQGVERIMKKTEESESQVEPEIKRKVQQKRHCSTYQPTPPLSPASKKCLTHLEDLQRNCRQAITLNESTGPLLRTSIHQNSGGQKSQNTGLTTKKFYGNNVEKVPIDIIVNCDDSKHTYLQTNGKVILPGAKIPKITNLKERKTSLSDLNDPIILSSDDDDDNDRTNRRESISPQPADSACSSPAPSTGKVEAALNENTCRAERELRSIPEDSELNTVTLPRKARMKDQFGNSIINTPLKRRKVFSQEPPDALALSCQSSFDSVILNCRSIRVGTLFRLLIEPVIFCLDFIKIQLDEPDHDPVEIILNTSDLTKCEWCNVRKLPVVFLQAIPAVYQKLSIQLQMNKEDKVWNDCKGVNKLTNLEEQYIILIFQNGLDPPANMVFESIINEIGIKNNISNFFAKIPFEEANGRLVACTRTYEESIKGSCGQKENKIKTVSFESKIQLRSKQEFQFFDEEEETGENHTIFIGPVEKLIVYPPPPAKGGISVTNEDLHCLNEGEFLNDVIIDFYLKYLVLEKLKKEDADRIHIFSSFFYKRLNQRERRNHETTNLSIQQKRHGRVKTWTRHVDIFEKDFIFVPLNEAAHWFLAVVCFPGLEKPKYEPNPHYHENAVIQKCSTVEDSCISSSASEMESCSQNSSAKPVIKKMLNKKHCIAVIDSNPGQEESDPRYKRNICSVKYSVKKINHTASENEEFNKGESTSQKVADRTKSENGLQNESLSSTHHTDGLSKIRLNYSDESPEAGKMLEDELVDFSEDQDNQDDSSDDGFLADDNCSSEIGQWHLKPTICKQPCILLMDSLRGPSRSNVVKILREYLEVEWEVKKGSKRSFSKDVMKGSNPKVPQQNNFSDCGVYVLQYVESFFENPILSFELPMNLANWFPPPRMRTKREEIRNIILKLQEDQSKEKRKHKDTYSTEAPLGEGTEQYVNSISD
Format: functional
Calls of active or inactive are those of the source.
Possible outcomes: active, inactive

ITEM_SMILES | ASSAY_TARGET | GROUP
O=Nc1c(-c2c(O)[nH]c3cc(Br)ccc23)[nH]c2ccccc12 | Sentrin-specific protease 6 (Homo sapiens, UniProt Q9GZR1) | inactive
Cc1ccc(OCc2nc(-c3ccccc3)no2)c(C)c1 | Sentrin-specific protease 6 (Homo sapiens, UniProt Q9GZR1) | active
COc1cccc(NC(=O)c2csc3c2CCCC3)c1 | Sentrin-specific protease 6 (Homo sapiens, UniProt Q9GZR1) | active
COc1cc(NC(=O)COC(=O)c2ccc([N+](=O)[O-])s2)cc(OC)c1OC | Sentrin-specific protease 6 (Homo sapiens, UniProt Q9GZR1) | active
Cc1ccc(NC(=O)COc2cccc(/C=C3\SC(=S)N(CCC(=O)O)C3=O)c2)cc1Cl | Sentrin-specific protease 6 (Homo sapiens, UniProt Q9GZR1) | inactive
Cc1ccc(O)c(NC(=O)c2cc(-c3ccco3)on2)c1 | Sentrin-specific protease 6 (Homo sapiens, UniProt Q9GZR1) | inactive
Cc1cc(C)n(CCc2nc(-c3ccc(-c4ccccc4)cc3)cs2)n1 | Sentrin-specific protease 6 (Homo sapiens, UniProt Q9GZR1) | active
CCOC(=O)NNc1ccc2nonc2c1[N+](=O)[O-] | Sentrin-specific protease 6 (Homo sapiens, UniProt Q9GZR1) | active
O=C(Nc1nc2ccccc2[nH]1)Nc1ccccc1F | Sentrin-specific protease 6 (Homo sapiens, UniProt Q9GZR1) | active

----------
AC50 tested on Cytochrome P450 2C9 (Homo sapiens): recorded values
Sequence (P11712 whole entry): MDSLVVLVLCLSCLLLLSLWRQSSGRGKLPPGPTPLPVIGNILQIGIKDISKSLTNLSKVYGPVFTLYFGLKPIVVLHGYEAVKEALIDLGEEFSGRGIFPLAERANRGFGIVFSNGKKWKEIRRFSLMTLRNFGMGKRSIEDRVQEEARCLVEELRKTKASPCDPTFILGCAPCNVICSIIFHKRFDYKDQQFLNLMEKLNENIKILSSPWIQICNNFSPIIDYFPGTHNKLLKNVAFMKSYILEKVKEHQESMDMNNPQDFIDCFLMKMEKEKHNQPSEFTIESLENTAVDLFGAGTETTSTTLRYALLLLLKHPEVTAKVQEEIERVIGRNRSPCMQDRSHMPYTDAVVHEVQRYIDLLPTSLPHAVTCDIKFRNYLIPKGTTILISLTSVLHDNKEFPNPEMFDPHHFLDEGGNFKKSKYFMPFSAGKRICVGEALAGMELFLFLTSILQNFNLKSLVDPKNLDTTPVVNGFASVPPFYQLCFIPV

MOLECULE | AC50
NC(=NO)C1COc2ccccc2O1 (configuration not stated) | 2.51 µM (inconclusive)
CCOc1ccc(-c2nn(-c3ccccc3)cc2/C=C(\C#N)S(=O)(=O)c2ccccc2)cc1C | 10 µM (inconclusive)
COc1ccc(C(=O)c2cnc3ccccc3c2-c2ccccc2)cc1 | 7.08 µM (inconclusive)
CCN1CCN(S(=O)(=O)c2ccc(Cl)c(C(=O)Nc3nnc(CC(C)C)s3)c2)CC1 | 25.1 µM (inconclusive)
CC1=C(C#N)C(NC(=O)C2CCCCC2)(C(F)(F)F)C(=O)N1 (configuration not stated) | 7.94 µM (inconclusive)
O=C(c1ccco1)N1CCC[C@@]2(CCN(C(c3ccccc3)c3ccccc3)C2)C1 | 31.6 µM (inconclusive)
O=C(N/N=C/c1ccc([N+](=O)[O-])s1)c1ccccc1Br | 39.8 µM (inconclusive)
COc1ccc(CCNC=C2C(=O)CC(C)(C)CC2=O)cc1 | 12.6 µM (inconclusive)
O=C(c1cccc(F)c1)N1CCC2(CC1)CCN(c1ccncc1)CC2 | 25.1 µM (inconclusive)
Cc1ccc(C(=O)Nc2ccc3nccnc3c2)cc1 | 35.5 µM (inconclusive)
CCCc1cc2c(cc1NC(=O)c1ccc(Br)cc1)OCO2 | 2.82 µM (inconclusive)
O=c1cc(N2CCN(c3cccc(Cl)c3)CC2)[nH]c(=O)n1C1CCCCC1 | 3.16 µM (inconclusive)
COCC1C2CC[C@H]3C(OCc4ccc(OC)cc4)OC[C@]4(C)[C@H]3C2=C(CN4C(=O)OC(C)(C)C)[C@H](C)C1COC (some centres not stated) | 15.8 µM (inconclusive)
CN1C(C(=O)Nc2ccccn2)=C(O)c2sccc2S1(=O)=O | 2.51 µM (inconclusive)
COc1cc(-c2ccc(/N=N\c3ccc4c(S(=O)(=O)O)cc(S(=O)(=O)O)c(N)c4c3O)c(OC)c2)ccc1/N=N\c1ccc2c(S(=O)(=O)O)cc(S(=O)(=O)O)c(N)c2c1O | 10 µM (inconclusive)
Cc1cc(NC(=O)c2c([N+](=O)[O-])cnn2C)no1 | 39.8 µM (inconclusive)
COc1cccc(-c2nc(C[S+]([O-])CC(=O)N3CCC4(CC3)OCCO4)c(C)o2)c1 (configuration not stated) | 31.6 µM (inconclusive)
Cc1ccc(Cn2cccc(NC(=O)NCc3ccccc3)c2=O)cc1 | 14.1 µM (inconclusive)
COc1ccc(Oc2ncc3nc(C)c(=O)n(C[C@H]4CCCO4)c3n2)cc1 | 39.8 µM (inconclusive)
COc1ccccc1-c1c(C(F)(F)F)oc2cc(OC(=O)c3cccc([N+](=O)[O-])c3C)ccc2c1=O | 0.447 µM (inconclusive)
COC(=O)\C(C(C)=O)=C(/C=C/C=C/C=C/N(C)C)N(C)C | 15.8 µM (inconclusive)
O=C(CCC(=O)Nc1ccccc1)NNC(=O)c1cccs1 | 31.6 µM (inconclusive)
